RUN DESCRIPTION: Photostability study (continuous irradiation in a spectrofluorimeter)
Assay type: physicochemical
CONDITIONS USED: solutions matched by optical density 0.03 at 560 nm, aqueous buffer pH 9, continuous irradiation at 560 nm
What Fluorescence remaining after irradiation for 30 minutes at 560 nm was measured for each of the following?
Could you give me the number in %? Just the number is fine.

# query: Fluorescence remaining after irradiation for 30 minutes at 560 nm of entry `O=c1ccc2nc3c(F)c(F)c(O)c(F)c3oc-2c1`
98

Which Fluorescence remaining after irradiation for 30 minutes at 560 nm is reported for this molecule? `O=c1ccc2nc3ccc(O)c(F)c3oc-2c1`
97

Return reported Fluorescence remaining after irradiation for 30 minutes at 560 nm; argument: `O=c1ccc2nc3ccc(O)cc3oc-2c1`
91

Reported Fluorescence remaining after irradiation for 30 minutes at 560 nm, molecule `O=c1ccc2nc3cc(F)c(O)cc3oc-2c1` : ____
94

# get_value(readout='Fluorescence remaining after irradiation for 30 minutes at 560 nm', item= `O=c1ccc2nc3c(F)cc(O)cc3oc-2c1` )
95

Given the molecule `O=c1ccc2nc3cc(F)c(O)c(F)c3oc-2c1` , what is its reported Fluorescence remaining after irradiation for 30 minutes at 560 nm?
96
